# Tested on: L1210 leukemia ip in BDF1 mice, survival T/C
# Procedure Text: NCI In Vivo Anticancer Drug Screen. Data for tumor model L1210 Leukemia (intraperitoneal) in B6D2F1 (BDF1) mice
# Condition Info: endpoint: mean survival time; dose: 50.0 mg/kg/injection; schedule: Q01DX001 (ip); vehicle: Klucel (hydroxypropylcellulose) (HPC); higher = longer survival
Toxic doses and inconclusive results are not listed.
Property Measured: T/C

Molecule: O=C(O)c1c(O)c(-c2ccccc2)nc2ccccc12
T/C: 102 % of control
--
Molecule: N#CC(c1ccc(Br)cc1)C1c2ccccc2-c2ccccc21 (centres undefined)
T/C: 93 % of control
--
Molecule: BrC1(Br)C2C3C=CC4C(C=C3)C4C21 (centres undefined)
T/C: 105 % of control

GET /values?readout=T/C&system=L1210 leukemia ip in BDF1 mice, survival T/C&item= "CCOC(=O)c1nc(N)nc(N)c1Oc1ccccc1"
92 % of control

GET /values?readout=T/C&system=L1210 leukemia ip in BDF1 mice, survival T/C&item= "O=C1c2ccccc2C(=O)N1Cc1cccc(CBr)c1"
105 % of control

GET /values?readout=T/C&system=L1210 leukemia ip in BDF1 mice, survival T/C&item= "Cc1ccc2ccc3ccc4ccccc4c3c2c1"
101 % of control

GET /values?readout=T/C&system=L1210 leukemia ip in BDF1 mice, survival T/C&item= "Cc1ccc(NC(=O)N(C)N=O)cc1"
119 % of control

GET /values?readout=T/C&system=L1210 leukemia ip in BDF1 mice, survival T/C&item= "Nc1ncc(CO)c(N)n1"
98 % of control

GET /values?readout=T/C&system=L1210 leukemia ip in BDF1 mice, survival T/C&item= COc1ccc2c(c1)CCC1C2CCC2C(O)CCC(=O)C21 (centres undefined)
102 % of control

* * *

# Test system: L1210 leukemia ip in BDF1 mice, survival T/C
# Procedure Text: NCI In Vivo Anticancer Drug Screen. Data for tumor model L1210 Leukemia (intraperitoneal) in B6D2F1 (BDF1) mice
# Condition Info: endpoint: mean survival time; dose: 100.0 mg/kg/injection; schedule: Q01DX001 (ip); vehicle: Klucel (hydroxypropylcellulose) (HPC); higher = longer survival
Inconclusive results and toxic doses are left out.
Recorded measurements of T/C, one per entry

Solved cases below.
Compound: NNC(=O)c1ccc(Cl)cc1Nc1ccccc1
T/C: 95 % of control

Compound: O=C(Cc1ccc([N+](=O)[O-])cc1)c1ccccc1
T/C: 95 % of control

Look up T/C for this compound: "N#CCNC(=O)c1ccc(I)cc1"
111 % of control

Look up T/C for this compound: "CCC(=O)OC1(c2ccccc2)CCN(C2CC2)CC1"
100 % of control

Look up T/C for this compound: COc1cc([N+](=O)[O-])ccc1C(=O)NC(CCC(=O)O)C(=O)O (stereo not drawn)
95 % of control

Look up T/C for this compound: "CC(=O)Nc1nc(Cl)c(N)c(SCc2ccccc2)n1"
98 % of control

Look up T/C for this compound: "CCC(CC)C(N)=O"
100 % of control

Look up T/C for this compound: CC12CCC3C(CC=C4CC(SC(=N)N)CCC43C)C1CCC2=O (stereo not drawn)
95 % of control

Look up T/C for this compound: CC(=O)NC1CCC(C)CC1 (stereo not drawn)
93 % of control

Look up T/C for this compound: "N#C/C(N)=C(/C#N)N=Cc1ccccc1"
97 % of control

Look up T/C for this compound: CC1C(=O)OC2C1CCC1(C)C=CC(=O)C3(C)OC213 (stereo not drawn)
97 % of control

Look up T/C for this compound: "CC(C)NC(=O)NC(C)C"
100 % of control

Look up T/C for this compound: CC(C)C1C(C(C)C)N1C(=O)Nc1ccccc1 (stereo not drawn)
93 % of control

* * *

# Test system: L1210 leukemia ip in BDF1 mice, survival T/C
# Procedure Text: NCI In Vivo Anticancer Drug Screen. Data for tumor model L1210 Leukemia (intraperitoneal) in B6D2F1 (BDF1) mice
# Condition Info: endpoint: mean survival time; dose: 100.0 mg/kg/injection; schedule: Q04DX002 (ip); vehicle: saline; higher = longer survival
Inconclusive results and toxic doses are left out.
Recorded measurements of T/C, one per entry

Solved cases below.
Compound: CC1N=C1c1ccccc1 (stereo not drawn)
Endpoint Value: 102 % of control

Compound: N#CCCN(CCCN1CCOCC1)CN1C(=O)c2ccccc2C1=O
Endpoint Value: 104 % of control

GET /values?readout=T/C&system=L1210 leukemia ip in BDF1 mice, survival T/C&item= COC1OC(CO)C(O)C1n1cnc2c(SC)ncnc21 (stereo not drawn)
107 % of control

GET /values?readout=T/C&system=L1210 leukemia ip in BDF1 mice, survival T/C&item= "COc1ccc(CC(=O)c2ccccc2)cc1"
92 % of control

GET /values?readout=T/C&system=L1210 leukemia ip in BDF1 mice, survival T/C&item= "Cc1ccc(N=Nc2ccc(C)cc2NC(=O)Nc2cc([N+](=O)[O-])ccc2F)cc1"
93 % of control

GET /values?readout=T/C&system=L1210 leukemia ip in BDF1 mice, survival T/C&item= "CC(=O)c1cc(Cl)ccc1Cl"
97 % of control

GET /values?readout=T/C&system=L1210 leukemia ip in BDF1 mice, survival T/C&item= COC1OC2COC(c3ccccc3)OC2C2OC(=S)OC12 (stereo not drawn)
93 % of control

GET /values?readout=T/C&system=L1210 leukemia ip in BDF1 mice, survival T/C&item= "[O-][n+]1ccccc1CCO"
98 % of control

* * *

# Test system: L1210 leukemia ip in BDF1 mice, survival T/C
# Procedure Text: NCI In Vivo Anticancer Drug Screen. Data for tumor model L1210 Leukemia (intraperitoneal) in B6D2F1 (BDF1) mice
# Condition Info: endpoint: mean survival time; dose: 400.0 mg/kg/injection; schedule: Q01DX001 (ip); vehicle: saline with Tween-80; higher = longer survival
Inconclusive results and toxic doses are left out.
Property Measured: T/C

Solved cases below.
Compound: N#CC(/C=C/c1ccccc1)Nc1ccccc1N (stereo not drawn)
Property Measured: T/C
Endpoint Value: 86 % of control
//
Compound: CNC(=O)N(C1CCCCC1)C1CCCCC1
Property Measured: T/C
Endpoint Value: 108 % of control

Look up T/C for this compound: COC1OC2COC(c3ccccc3)OC2C(O)C1NC(C)=O (stereo not drawn)
98 % of control

Look up T/C for this compound: "CCCCCCCCCCCCCC(CCCCCCCCCCCC)CCCCCCCCCCCC"
87 % of control

Look up T/C for this compound: "COc1c2c(c3ccccc3c1OC(C)=O)OC(C)(C)CC2"
90 % of control

Look up T/C for this compound: CC(=O)NC(CO)C(O)c1ccc([N+](=O)[O-])cc1 (stereo not drawn)
97 % of control

Look up T/C for this compound: "[Br][Sn]([Br])([c]1cccc2ccccc12)[c]1cccc2ccccc12"
93 % of control

Look up T/C for this compound: "NS(=O)(=O)c1cc(Cl)ccc1Cl"
91 % of control

* * *

Recorded measurements of T/C, one per entry
# Tested on: L1210 leukemia ip in BDF1 mice, survival T/C
# Procedure Text: NCI In Vivo Anticancer Drug Screen. Data for tumor model L1210 Leukemia (intraperitoneal) in B6D2F1 (BDF1) mice
# Condition Info: endpoint: mean survival time; dose: 100.0 mg/kg/injection; schedule: Q04DX003 (ip); vehicle: other; higher = longer survival
Inconclusive results and toxic doses are left out.

Look up T/C for this compound: "CN(C)c1ccc(C(=O)O)cc1"
104 % of control

Look up T/C for this compound: "CNS(=O)(=O)c1ccc(N)cc1"
97 % of control

Look up T/C for this compound: "COc1ccnc2ccc(C)c([N+](=O)[O-])c12"
96 % of control

Look up T/C for this compound: "FC(F)(Cl)c1nc2nc(Cl)c(Cl)nc2[nH]1"
114 % of control

* * *

# Tested on: L1210 leukemia ip in BDF1 mice, survival T/C
# Procedure Text: NCI In Vivo Anticancer Drug Screen. Data for tumor model L1210 Leukemia (intraperitoneal) in B6D2F1 (BDF1) mice
# Condition Info: endpoint: mean survival time; dose: 25.0 mg/kg/injection; schedule: Q04DX003 (ip); vehicle: saline; higher = longer survival
# Description: The antitumor activity of compounds was measured in mice bearing transplantable tumors. Survival or tumor size were measured and the results are expressed as the measurement made in the treated group (T) divided by the measurement made in the vehicle treated control group (C). The tumor model used in this assay is L1210 Leukemia (intraperitoneal) in B6D2F1 (BDF1) mice
Toxic doses and inconclusive results are not listed.
Recorded measurements of T/C, one per entry

Solved cases below.
Compound: CC(C)=CCC/C(C)=C/CN
T/C: 101 % of control
--
Compound: Clc1cc(Cl)nc(N2CC2)n1
T/C: 92 % of control
--
Compound: CN(C)Cc1cccc([N+](=O)[O-])c1
T/C: 88 % of control
--
Compound: CCN(CC)C(=O)C1C=C2c3cccc4c3c(c(Br)n4C)CC2N(C)C1 (stereo unspecified)
T/C: 103 % of control
--
Compound: CCOC(=O)N1CCN(Cn2cc3c4c(cccc42)C2CC(C(=O)NC(C)C)CN(C)C2C3)CC1 (stereo unspecified)
T/C: 100 % of control

GET /values?readout=T/C&system=L1210 leukemia ip in BDF1 mice, survival T/C&item= CCN(CC)CCCC(C)Nc1cc(N)nc2nccnc12 (stereo unspecified)
102 % of control

GET /values?readout=T/C&system=L1210 leukemia ip in BDF1 mice, survival T/C&item= "BrCCN1CCCCC1"
96 % of control
